// provenance: ChEMBL document CHEMBL1649435

Tested on: Hepatitis C virus
measurement.notes: Antiviral activity against HCV2A SGR-JFH-1 infected in human Huh7.5 cells assessed as decrease in intracellular viral RNA treated for 3 days measured 24 hrs after last dose by luciferase reporter gene-based […]
Assay type: functional, organism-based, Hepacivirus hominis
experimental.conditions: genotype 2a SGR-JFH-1, Huh-7
Please provide measured EC50 for the entries that follow.

line.notation	experimental.system	EC50
Nc1ncnc2c1ncn2C[C@@H](CO)OCP(=O)(O)O	Hepatitis C virus	> 100 µM
CCCCCCCCCCCCCCCCCCOCCOP(=O)(O)CO[C@H](CO)Cn1cnc2c(N)ncnc21	Hepatitis C virus	0.69 µM
CCCCCCCCCCCCCCCCOCCCOP(=O)(O)CO[C@H](CO)Cn1cnc2c(N)ncnc21	Hepatitis C virus	6.5 µM
CCCCCCCCCCCCCCCCCCOCCOP(=O)(O)CO[C@@H](CO)Cn1cnc2c(N)ncnc21	Hepatitis C virus	26.7 µM
Nc1ncnc2c1ncn2C[C@H](CO)OCP(=O)(O)O	Hepatitis C virus	> 100 µM

Record summary for CCCCCCCCCCCCCCCCOCCCOP(=O)(O)CO[C@@H](CO)Cn1cnc2c(N)ncnc21 : reported EC50 = 41 µM
